TARGET UNDER TEST: P. falciparum PMX (Plasmodium falciparum, UniProt Q8IAS0)
Sequence (Q8IAS0 222-573): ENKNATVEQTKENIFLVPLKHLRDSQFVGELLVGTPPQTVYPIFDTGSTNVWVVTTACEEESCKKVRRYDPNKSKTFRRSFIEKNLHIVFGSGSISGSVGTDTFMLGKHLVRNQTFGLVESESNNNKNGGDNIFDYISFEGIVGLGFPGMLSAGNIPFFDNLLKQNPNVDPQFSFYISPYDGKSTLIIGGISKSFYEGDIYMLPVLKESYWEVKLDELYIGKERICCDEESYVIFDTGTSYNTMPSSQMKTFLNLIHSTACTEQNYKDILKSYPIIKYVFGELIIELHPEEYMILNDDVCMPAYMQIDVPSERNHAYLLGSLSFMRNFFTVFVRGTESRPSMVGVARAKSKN
Please provide measured IC50 for the entries that follow.
Please reply with the bare figure in µM and do not write the unit itself.

What IC50 value was documented for this molecule, CN1C(=N)NC2(c3cc(F)ccc3F)CN(c3ncccc3-c3ccc(Cl)c(Cl)c3)CC2C1=O (stereo not drawn) [Compound 19] ? 0.187

What IC50 value was documented for this molecule, Cc1ccc(-c2cccnc2N2CC3C(=O)N(C)C(=N)NC3(c3cc(F)ccc3F)C2)c(Cl)c1 (stereo not drawn) [Compound 22] ? 0.42

What IC50 value was documented for this molecule, CN1C(=N)NC2(c3cc(F)ccc3F)CN(c3ncccc3-c3ccc(Cl)cc3)CC2C1=O (stereo not drawn) [R/S‐WM48 (14)] ? 0.343

* * *

TARGET UNDER TEST: recombinant Plasmodium vivax PMV (Plasmodium vivax, UniProt A5K302)
Construct: PvPMV (residues R35–R476) was prepared similarly; gp67 signal peptide (N); TEV protease cleavage site + FLAG tag (C)
Sequence (A5K302 35-476): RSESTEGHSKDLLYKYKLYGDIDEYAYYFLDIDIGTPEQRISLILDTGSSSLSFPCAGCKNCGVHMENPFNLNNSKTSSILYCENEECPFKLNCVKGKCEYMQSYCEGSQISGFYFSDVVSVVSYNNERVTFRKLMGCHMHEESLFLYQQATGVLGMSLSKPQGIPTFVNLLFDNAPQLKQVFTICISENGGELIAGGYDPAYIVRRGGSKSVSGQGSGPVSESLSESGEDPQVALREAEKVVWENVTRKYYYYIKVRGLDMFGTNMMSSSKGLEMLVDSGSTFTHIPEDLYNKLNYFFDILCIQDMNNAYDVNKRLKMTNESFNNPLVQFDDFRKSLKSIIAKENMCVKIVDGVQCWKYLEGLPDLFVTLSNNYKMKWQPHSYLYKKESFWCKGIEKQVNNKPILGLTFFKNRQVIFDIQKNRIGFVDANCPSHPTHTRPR
ASSAY SUMMARY: Plasmepsin V fluorogenic substrate cleavage assay
EXPERIMENTAL CONDITIONS: recombinant P. vivax PMV; average of three independent experiments; read-out: PMV IC50 (SD)
Please provide measured pIC50 for the entries that follow.
Note on pIC50: it is the negative log10 of concentration, concentration in mol/L.

What pIC50 value was documented for this compound, CN1C(=N)NC2(c3cc(F)ccc3F)CN(c3n[nH]cc3-c3ccccc3)CC2C1=O (stereo not shown) ? 6.17

What pIC50 value was documented for this compound, CN1C(=N)NC2(c3cc(F)ccc3F)CN(c3ncccc3-c3ccccc3)CC2C1=O (stereo not shown) ? 6.36

What pIC50 value was documented for this compound, CN1C(=N)NC2(c3cc(F)ccc3F)CN(c3ncccc3-c3sccc3Cl)CC2C1=O (stereo not shown) ? 5.95

* * *

TARGET UNDER TEST: recombinant Plasmodium vivax PMV (Plasmodium vivax)
Construct: PvPMV (residues R35–R476) was prepared similarly; gp67 signal peptide (N); TEV protease cleavage site + FLAG tag (C)
ASSAY SUMMARY: Plasmepsin V fluorogenic substrate cleavage assay
EXPERIMENTAL CONDITIONS: recombinant P. vivax PMV; average of three independent experiments; read-out: PMV IC50 (SD)
Please provide measured pIC50 for the entries that follow.
Note on pIC50: it is the negative log10 of concentration, concentration in mol/L.

What pIC50 value was documented for this compound, CN1C(=N)NC2(c3cc(F)ccc3F)CN(c3ncccc3-c3ccc(Cl)cc3F)CC2C1=O (stereo not shown) ? 6.11

What pIC50 value was documented for this compound, COc1ccc(-c2cccnc2N2CC3C(=O)N(C)C(=N)NC3(c3cc(F)ccc3F)C2)c(Cl)c1 (stereo not shown) ? 5.50

What pIC50 value was documented for this compound, CN1C(=N)NC2(c3cc(F)ccc3F)CN(c3ncccc3-c3ccccc3F)CC2C1=O (stereo not shown) ? 5.99

What pIC50 value was documented for this compound, CN1C(=N)NC2(c3cc(F)ccc3F)CN(c3ncccc3-c3ccccc3C(F)(F)F)CC2C1=O (stereo not shown) ? 5.46

What pIC50 value was documented for this compound, COc1ccccc1-c1cccnc1N1CC2C(=O)N(C)C(=N)NC2(c2cc(F)ccc2F)C1 (stereo not shown) ? 6.52

What pIC50 value was documented for this compound, Cc1ccc(-c2cccnc2N2CC3C(=O)N(C)C(=N)NC3(c3cc(F)ccc3F)C2)c(Cl)c1 (stereo not shown) ? 6.16

What pIC50 value was documented for this compound, CN1C(=N)NC2(c3cc(F)ccc3F)CN(c3ncccc3-c3ccccc3Cl)CC2C1=O (stereo not shown) ? 6.09

What pIC50 value was documented for this compound, CN1C(=N)NC2(c3cc(F)ccc3F)CN(c3nn(C)cc3-c3ccccc3)CC2C1=O (stereo not shown) ? 5.98

What pIC50 value was documented for this compound, CN1C(=N)NC2(c3cc(F)ccc3F)CN(c3ncsc3-c3ccccc3)CC2C1=O (stereo not shown) ? 6.36

What pIC50 value was documented for this compound, CN1C(=N)NC2(c3cc(F)ccc3F)CN(c3ncccc3-c3ccc(Cl)c(F)c3)CC2C1=O (stereo not shown) ? 6.00

What pIC50 value was documented for this compound, CN1C(=N)NC2(c3cc(F)ccc3F)CN(c3ncccc3-c3ccc(Cl)s3)CC2C1=O (stereo not shown) ? 6.21

What pIC50 value was documented for this compound, CN1C(=N)NC2(c3cc(F)ccc3F)CN(c3ncccc3-c3ccc(Cl)cc3Cl)CC2C1=O (stereo not shown) ? 6.29

What pIC50 value was documented for this compound, COc1cccc(-c2cccnc2N2CC3C(=O)N(C)C(=N)NC3(c3cc(F)ccc3F)C2)c1 (stereo not shown) ? 5.82

What pIC50 value was documented for this compound, CN1C(=N)NC2(c3cc(F)ccc3F)CN(c3ncccc3-c3ccc(F)cc3Cl)CC2C1=O (stereo not shown) ? 6.01
